# protocol_summary: qHTS for Inhibitors of Cell Surface uPA Generation; further: nearly all actives have a fitted effect of over 55% in size
# assay_context: cell surface uPA generation assay; series mostly up to 38.3 µM
Hit rate of the full screen: of about 330,000 compounds, about 1,000 (0.3%) were called active. Another 3% or so got no clear call; they are omitted. Many of the other results were omitted from the sample, so actives are more common in it than they were.

>  <compound>
CC12CCC3C(CCC4CC(=O)CCC43C)C1CC(=NO)C2=O (stereo unspecified)

>  <outcome>
inactive

$$$$
>  <compound>
CC1CCCN1CCC(C(N)=O)(c1ccccc1)c1ccccc1 (stereo unspecified)

>  <outcome>
inactive

$$$$
>  <compound>
CCOC(=O)C1(c2ccccc2)CCN(CC(O)c2ccc(NC(C)=O)cc2)CC1 (stereo unspecified)

>  <outcome>
inactive

$$$$
>  <compound>
Cc1cc(C)c2c(c1)NP(=S)(c1ccccc1)N2 (stereo unspecified)

>  <outcome>
inactive

$$$$
>  <compound>
C=C(C)C1(CCCC)C(=O)NC(=S)NC1=O

>  <outcome>
inactive

$$$$
>  <compound>
CC(=O)OC1C2(CC3N4C(=O)C5(CO)SSC4(CC31O)C(=O)N5C)OC(C)C(C)(C)C2=O (stereo unspecified)

>  <outcome>
inactive

$$$$

Reference source: PubChem BioAssay AID540303
